Where do these numbers come from? They come from patent US6413997B1.

Tested on: cotton aphids (aphis gossypii)
Test: Insecticidal test for cotton aphid, foliar spray on infested squash cotyledons
Type: in vivo
Conditions: 50 ppm spray, graded after 3 days, versus untreated check
REPORTED METRIC: CA: activity at 50 ppm against cotton aphids (rating of % mortality / percent control)

> print(dat)
                                 smiles.str  data.value
1  Cn1nc(-c2c(F)cccc2Cl)nc1-c1snc(-c2ccccc2)c1Br   B (81-90)
2        Cc1nc(-c2nc(-c3c(F)cccc3F)nn2C)cs1   D (61-70)
3  Cn1nc(-c2c(F)cccc2F)nc1-c1cc(C(C)(C)C)no1   D (61-70)
4          Cc1ncsc1-c1nc(-c2c(F)cccc2F)nn1C   B (81-90)

----------
Tested on: cotton aphids (aphis gossypii)
Assay: Insecticidal test for cotton aphid, foliar spray on infested squash cotyledons
Format: in vivo
Settings: 50 ppm spray, graded after 3 days, versus untreated check
REPORTED METRIC: CA: activity at 50 ppm against cotton aphids (rating of % mortality / percent control)

> print(dat)
                                   compound  data.value
1  Cn1nc(-c2c(F)cccc2F)nc1-c1snc(-c2ccc(Cl)cc2)c1Br [Compound 11]  A (91-100)
2  Cn1nc(-c2c(F)cccc2F)nc1-c1snc(C#N)c1Br [Compound 4]  A (91-100)

----------
System: cotton aphids (aphis gossypii)
Experiment: Insecticidal test for cotton aphid, foliar spray on infested squash cotyledons
Assay type: in vivo
Conditions: 50 ppm spray, graded after 3 days, versus untreated check
Description: Insecticidal Test for Cotton Aphid (Aphis gossypii) To prepare spray solutions, 2 mg of each test compound was dissolved into 2 mL of a 90:10 acetone:ethanol solvent. This 2 mL of chemical solution was added to 38 mL of water containing 0.05% Tween 20 surfactant to produce a 50 ppm spray solution. […]
REPORTED METRIC: CA: activity at 50 ppm against cotton aphids (rating of % mortality / percent control)

> print(dat)
                                  smiles.str  data.value
 1  Cn1nc(-c2c(F)cccc2F)nc1-c1cnn(C)c1[N+](=O)[O-]  A (91-100)
 2     CCn1nc(-c2nc(-c3c(F)cccc3Cl)nn2C)cc1C  A (91-100)
 3     Cn1nc(-c2c(F)cccc2F)nc1-c1sc(Cl)nc1Cl   B (81-90)
 4     Cc1cc(-c2nc(-c3c(F)cccc3F)nn2C)n(C)n1  A (91-100)
 5  Cn1nc(-c2c(F)cccc2F)nc1-c1cnn(-c2ccc(Cl)cc2)c1C(F)(F)F  A (91-100)
 6      CCn1nc(C)cc1-c1nc(-c2c(F)cccc2F)nn1C   B (81-90)
 7  Cn1nc(-c2c(F)cccc2F)nc1-c1snc(-c2ccccc2)c1Br   B (81-90)
 8      Cn1nc(-c2c(F)cccc2F)nc1-c1ccc(Br)n1C   B (81-90)
 9  Cn1nc(-c2c(F)cccc2F)nc1-c1cc(C(C)(C)C)nn1Cc1ccccc1   B (81-90)
10  Cn1nc(-c2c(F)cccc2F)nc1-c1cc(Br)c(Br)n1C  A (91-100)

Need CA: activity at 50 ppm against cotton aphids (rating of % mortality / percent control) for each of these compounds.
1. Cc1cc(-c2nc(-c3c(F)cccc3Cl)nn2C)n(C)n1
2. Cc1cnsc1-c1nc(-c2c(F)cccc2Cl)nn1C
3. Cc1cc(-c2nc(-c3c(F)cccc3F)nn2C)nn1C

Response:
1: A (91-100); 2: B (81-90); 3: A (91-100)

Provide reported CA: activity at 50 ppm against cotton aphids (rating of % mortality / percent control) for each item, in the same order as listed.
1. Cn1nc(-c2c(F)cccc2F)nc1-c1scnc1Cl
2. Cc1cc(-c2nc(-c3c(F)cccc3Cl)nn2C)nn1C
3. Cn1nc(-c2c(F)cccc2Cl)nc1-c1snc(-c2ccc(Cl)cc2)c1Br
4. Cc1nc(Br)sc1-c1nc(-c2c(F)cccc2F)nn1C

Response:
A (91-100)
A (91-100)
A (91-100)
A (91-100)
